system: SF-539 CNS; test: NCI tumour cell line growth inhibition, 48 h
observationType: TGI

Below: 2 compounds and their reported TGI.
> print(dat)
                                   compound  measuredresult
1          COc1ccc(N(C)c2ncnc3occ(C)c23)cc1       < 0.01 µM
2  CC(=O)c1c2c(cc3c1CC1(Cc4ccccc4C1=O)C3)CCC2 (stereo not drawn)        > 100 µM

Here is another compound to look at.
Task: Given O/N=C1/COC(C(F)(F)F)(C(F)(F)F)C1 , state its recorded TGI.
Output: > 100 µM

###

tested on: A498 renal; test: NCI tumour cell line growth inhibition, 48 h
Task for the reader: assign each of the following molecules its reported GI50.

> print(dat)
                                   molecule  experimentalsystem  measuredresult
1  COc1cc(Nc2cn[nH]c2-c2ccc(Cl)cc2)cc(OC)c1OC          A498 renal         4.58 µM

Please go through the list and note GI50 for each molecule.
1. CCOc1nc(-c2ccccc2)cc2c(O)c(-c3nnco3)[nH]c(=O)c12
2. CCOC(=O)Oc1c(OC)cc(C(=O)NC2CCc3cc(OC)c(OC)c(OC)c3-c3ccc(SC)c(=O)cc32)cc1OC (centres undefined)
3. C[As](C)SC1OC(CO)C(O)C1O (centres undefined)

Output:
1. 2.56 µM
2. 0.0206 µM
3. 0.516 µM
